- measurementDescription: Stability/conversion of esters in human liver S9
- Format: in vitro ADME
- runParameters: liver S9, pH 7.4, read-out: T1/2 Human Liver S9
metric: half-life at 10 μM (min)

(P) CC1=C[C@@H]2CN(C(=O)N2O[C@H](F)C(=O)OCC(C)C)[C@@H]1C(N)=O [Example 49]
(Q) CC1=C[C@@H]2CN(C(=O)N2O[C@@H](F)C(=O)OC(C)C)[C@@H]1C(N)=O [Example 13]
Qu. Select the item whose half-life at 10 μM value is smaller, choosing between P and Q . Respond using the label that marks the chosen record.
Ans. Q
(Q: 1 min, P: 6.9 min)

(a) CCCCOC(=O)[C@@H](F)ON1C(=O)N2C[C@H]1C=C(C)[C@H]2C(N)=O [Example 50]
(b) CCCCCCOC(=O)[C@@H](F)ON1C(=O)N2C[C@H]1C=C(C)[C@H]2C(N)=O [Example 52]
(c) CC1=C[C@@H](C(N)=O)N2C[C@@H]1N(OCC(=O)OC(C)C)C2=O [Example 96]
Qu. Sort these molecules on half-life at 10 μM so the largest reading comes first. Response field: labels, in requested order.
Ans. c, a, b
